# viability at 30 µM values compiled below
assay: Cytotoxicity against mouse Melan-a cells assessed as cell viability at 30 uM; type: cell-based; settings: Melan-a cells, read-out: Activity
Respond numerically; units are % and should not be typed.

# SMILES_CODE, viability at 30 µM (%)
measured = [
    ("COC(=O)c1cccc(NC(=O)c2cccc(OC)c2)c1", 20.1),
    ("CCCCOc1ccc(NC(=O)c2ccc(OC)cc2)cc1", 1),
    ("CCc1ccc(C(=O)Nc2cccc(C(=O)OC)c2)cc1", 37),
    ("Cc1ccccc1C(=O)Nc1cc(C(F)(F)F)cc(C(F)(F)F)c1", 15.1),
]

Annotate the molecule `COc1cc(NC(=O)c2ccc(C)cc2)cc(OC)c1` with its measured viability at 30 µM. 19.2

Let me know recorded viability at 30 µM for `COc1ccccc1NC(=O)c1ccccc1C` , thanks. 7

Annotate the molecule `COC(=O)c1cccc(NC(=O)c2cccc(C)c2)c1` with its measured viability at 30 µM. 10.5

Give a short answer stating reported viability at 30 µM for `COc1ccc(NC(=O)c2ccc(C)cc2)cc1` . 4.9

Fill in reported viability at 30 µM for this entry: `COc1ccc(OC)c(NC(=O)c2cccc(C)c2)c1` 0.3

Answer with reported viability at 30 µM of `COC(=O)c1ccccc1NC(=O)c1cccc(OC)c1` 11.1

Identify viability at 30 µM associated with the molecule `COc1cccc(NC(=O)c2cccc(C)c2)c1` -0.3

----------
assay: Cytotoxicity against mouse Melan-a cells assessed as cell viability at 30 uM; type: cell-based; settings: Melan-a cells, read-out: Activity
// reported viability at 30 µM per item
Just the number please, in %, no unit attached.

Example results:
# SMILES_CODE, UNIT_SYMBOL, MEASURED
records = [
    ("CCc1ccc(C(=O)Nc2cccc(OC)c2)cc1", "%", 6.3),
    ("COc1ccc(NC(=O)c2ccc(C#N)cc2)c(OC)c1", "%", 7.2),
]

Determine from records and report viability at 30 µM for `Cc1ccc(C(=O)Nc2cc(C(F)(F)F)cc(C(F)(F)F)c2)cc1` 0.3

Dear colleague, please send me the reported viability at 30 µM for `CCCCOc1ccc(NC(=O)c2ccc(C)cc2)cc1` when you can. -2.4

Could you please provide reported viability at 30 µM for `CCc1ccc(C(=O)Nc2ccc(C)cc2)cc1` ? Thanks! 1.8

For the compound `COC(=O)c1ccc(NC(=O)c2ccccc2C)cc1` , give its measured viability at 30 µM value. 0.8

Dear colleague, please send me the reported viability at 30 µM for `COc1ccc(NC(=O)c2cccc(C)c2)cc1` when you can. -0.4

Please give the documented viability at 30 µM of `COc1ccc(OC)c(NC(=O)c2ccco2)c1` -17

Fill in viability at 30 µM for record `CCc1ccc(C(=O)Nc2ccccc2OC)cc1` 13.5

Please list viability at 30 µM recorded for the compound `COc1cc(NC(=O)c2ccc(C#N)cc2)cc(OC)c1` 9.6

Return reported viability at 30 µM. Input compound: `Cc1ccc(C(=O)Nc2cc(C)cc(C)c2)cc1` 30.9

Indicate its recorded viability at 30 µM; the compound in question is `COc1ccc(OC)c(NC(=O)c2ccc(C#N)cc2)c1` -1.7

Please list viability at 30 µM recorded for the compound `Cc1cc(C)cc(NC(=O)c2ccc(C#N)cc2)c1` 31.6

Using known records, supply viability at 30 µM for `COC(=O)c1ccccc1NC(=O)c1ccc(C)cc1` 20.1

Provide one value: measured viability at 30 µM of `CC(=O)c1ccc(NC(=O)c2cccc(C)c2)cc1` -5.9

Answer with the recorded viability at 30 µM for the compound listed here: `CCc1ccc(C(=O)Nc2cc(OC)ccc2OC)cc1` -19.8

Fill in reported viability at 30 µM for this entry: `Cc1ccc(NC(=O)c2ccco2)cc1` 7.9

----------
test: Cytotoxicity against mouse Melan-a cells assessed as cell viability at 30 uM; format: cell-based; settings: Melan-a cells, read-out: Activity
Here, each record is paired with measured viability at 30 µM data.
Numbers only; they are read as %.

Some molecules with recorded viability at 30 µM:
# SMILES_CODE, PROPERTY, MEASURED
measured = [
    ("COC(=O)c1ccc(NC(=O)c2cccc(C)c2)cc1", "viability at 30 µM", 12.9),
    ("CC(=O)c1ccc(NC(=O)c2ccccc2C)cc1", "viability at 30 µM", 0.1),
    ("Cc1cc(C)cc(NC(=O)c2ccco2)c1", "viability at 30 µM", 14.2),
    ("COc1ccc(C(=O)Nc2ccc(C(C)=O)cc2)cc1", "viability at 30 µM", 0.7),
    ("Cc1ccc(NC(=O)c2cccc(C)c2)cc1", "viability at 30 µM", -2.4),
]

Could you now consider this next molecule?
Specify viability at 30 µM for `COc1cc(NC(=O)c2cccc(OC)c2)cc(OC)c1` and stop. 9.6
